Target: FXa (Homo sapiens, UniProt P00742)
Sequence (P00742 235-488 limits assumed): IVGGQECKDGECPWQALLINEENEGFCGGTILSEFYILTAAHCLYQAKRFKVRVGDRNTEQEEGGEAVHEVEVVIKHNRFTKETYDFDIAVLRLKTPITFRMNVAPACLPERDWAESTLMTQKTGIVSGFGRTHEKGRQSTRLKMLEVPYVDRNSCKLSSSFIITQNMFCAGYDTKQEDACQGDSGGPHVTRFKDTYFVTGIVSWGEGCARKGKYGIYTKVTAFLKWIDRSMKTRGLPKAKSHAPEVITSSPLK
Sequence (P00742 41-179 partner limits assumed): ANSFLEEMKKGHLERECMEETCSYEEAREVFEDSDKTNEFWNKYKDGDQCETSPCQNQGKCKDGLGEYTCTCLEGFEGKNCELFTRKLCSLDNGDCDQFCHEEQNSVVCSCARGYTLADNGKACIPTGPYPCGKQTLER
Test: Measurement of activated factor X activity-inhibitory activity (chromogenic substrate S-2222)
Conditions: negative logarithmic value of concentration suppressing reaction rate of control to 50%
pIC50 overview
Keep it numeric: pIC50 is minus log10 of the concentration in mol/L.

Sample records with pIC50:
>>> measuredvalue("N=C(N)N1Cc2ccc(C(=O)OCC3CCN(c4ccncc4)CC3)cc2C1 [compound of Ex. 7, ditrifluoroacetate]")
5.10
>>> measuredvalue("N=C(N)N1CCc2ccc(COC(=O)C3CCN(c4ccncc4)CC3)cc2C1 [compound of Ex. 3, ditrifluoroacetate]")
7.10
>>> measuredvalue("N=C(N)N1Cc2ccc(COC(=O)C3CCN(c4ccncc4)CC3)cc2C1 [compound of Ex. 8, ditrifluoroacetate]")
5.50

Turning now to a further compound:
Entry N=C(N)N1CCc2ccc(C(=O)OCC3CCN(c4ccncc4)CC3)cc2C1 [compound of Ex. 2, ditrifluoroacetate] , system FXa (Homo sapiens, UniProt P00742): what pIC50 was measured?
6.40
